tested on: Hs-578T; experiment: NCI tumour cell line growth inhibition, 48 h
Activity calls are given as the source filed them. Rule as the data show it: active = GI50 up to about 1.1 µM and inactive = higher.
Metric name: GI50

Lookup: Find the measured GI50: item CS(=O)(=O)Nc1ccc2ccccc2c1-c1c(NS(C)(=O)=O)ccc2ccccc12 , target or system Hs-578T.
Found: > 25 µM (inactive)

Lookup: Find the measured GI50: item CSC1(C)C(=O)Nc2c(OCc3ccccc3)cc([N+](=O)[O-])cc21 (stereo not given) , target or system Hs-578T.
Found: 17.7 µM (inactive)

Lookup: Find the measured GI50: item O=C1c2ccccc2C(=O)c2[nH]c(=O)c(/C=N/Nc3ccc([N+](=O)[O-])cc3)nc21 , target or system Hs-578T.
Found: 3.22 µM (inactive)

Lookup: Find the measured GI50: item CC(C)N/C(=N\C#N)NS(=O)(=O)c1cnccc1Nc1ccc(Cl)cc1 , target or system Hs-578T.
Found: > 100 µM (inactive)

Lookup: Find the measured GI50: item COc1ccc(P2(=S)OC(C)(C)C(C)(C)O2)cc1 , target or system Hs-578T.
Found: > 100 µM (inactive)

###

test system: U-251; test: NCI tumour cell line growth inhibition, 48 h
Activity calls are given as the source filed them. No stated cut-off is given here; in the data, active = GI50 up to about 1.1 µM and inactive = higher.
Please provide measured GI50 for the entries that follow.

Lookup: Look up GI50 for this compound: Cc1ccc2ccc(=O)oc2c1
Found: > 100 µM (inactive)

Lookup: Look up GI50 for this compound: CCN1CC2=C(OC(N)=C(C#N)C2c2ccc(Cl)cc2)/C(=C/c2ccc(Cl)cc2)C1 (configuration not stated)
Found: 16.4 µM (inactive)

Lookup: Look up GI50 for this compound: Oc1ccc(-c2n[nH]c(S)n2)cc1
Found: > 100 µM (inactive)

Lookup: Look up GI50 for this compound: CCCCCCCCOCC1S(=O)(=O)OCCOS1(=O)=O
Found: > 100 µM (inactive)

Lookup: Look up GI50 for this compound: Clc1ccc(CCn2ccc3ccccc32)c(Cl)c1
Found: > 100 µM (inactive)

Lookup: Look up GI50 for this compound: Cc1cccc(-c2nc3ccc([N+](=O)[O-])cc3c(=O)o2)c1
Found: 44.4 µM (inactive)

Lookup: Look up GI50 for this compound: CN1C2CCC1C(C(O)c1ccccc1[N+](=O)[O-])C(=O)C2 (configuration not stated)
Found: > 100 µM (inactive)

Lookup: Look up GI50 for this compound: Cc1nc(N)nc(N)c1CCCCc1ccc(N)cc1
Found: 3.03 µM (inactive)

Lookup: Look up GI50 for this compound: CCOC(=O)c1ccc(Nc2nc3ccccc3nc2C(=O)OCC)cc1
Found: > 100 µM (inactive)

Lookup: Look up GI50 for this compound: CN(C)CC(CO)(CN(C)C)CN(C)C
Found: > 100 µM (inactive)

Lookup: Look up GI50 for this compound: Cn1c(=O)c2[nH]c(/N=N/N3CCN(CCO)CC3)nc2n(C)c1=O
Found: > 100 µM (inactive)

Lookup: Look up GI50 for this compound: c1ccc2c(c1)nnn2CNc1ccc(N2CCCCC2)cc1
Found: > 100 µM (inactive)

###

test system: HT-29; assay: NCI tumour cell line growth inhibition, 48 h
Active and inactive are the calls of the source. No stated cut-off is given here; in the data, active = GI50 up to about 1.1 µM and inactive = higher.
Please provide measured GI50 for the entries that follow.

Lookup: Look up GI50 for this compound: C=CC1=C(C)c2cc3[nH]c(c4c5nc(cc6[nH]c(cc1n2)c(C=O)c6CC)C(C)=C5C(=O)[C@@H]4C(=O)OC)[C@@H](CCC(=O)O)[C@@H]3C
Found: > 100 µM (inactive)

Lookup: Look up GI50 for this compound: CC(=N/NC(=S)N1CCCCC1)/C(=N\NC(=S)N1CCCCC1)c1ccccc1
Found: 2.1 µM (inactive)

Lookup: Look up GI50 for this compound: OC1(CCc2ccccc2)COC(C(F)(F)F)(C(F)(F)F)C1 (stereo not given)
Found: > 100 µM (inactive)

Lookup: Look up GI50 for this compound: COc1ccc(CCc2ccc(O)c(C(=O)O)c2)cc1OC
Found: > 100 µM (inactive)

Lookup: Look up GI50 for this compound: Cc1c(/N=N/c2ccccc2)c(C)n(C2OC(CO)C(O)C(O)C2O)c(=S)c1C#N (stereo not given)
Found: 32.7 µM (inactive)

###

test system: SK-MEL-5; assay: NCI tumour cell line growth inhibition, 48 h
Activity calls are given as the source filed them. Cut-off read from the data, not from the text of the source: active = GI50 up to about 1.1 µM and inactive = higher.
Please provide measured GI50 for the entries that follow.

Lookup: Look up GI50 for this compound: O=C(c1ccco1)N(C(=S)N1CCN(c2ccccc2)CC1)c1ccccc1
Found: > 100 µM (inactive)

Lookup: Look up GI50 for this compound: Oc1ccc(-c2n[nH]c(S)n2)cc1
Found: > 100 µM (inactive)

Lookup: Look up GI50 for this compound: N#Cc1c(N2CCN(c3ccc([N+](=O)[O-])cc3)CC2)[n+]([O-])c2ccc(-c3ccc([N+](=O)[O-])cc3)cc2[n+]1[O-]
Found: 4.18 µM (inactive)

Lookup: Look up GI50 for this compound: CCOC(=O)c1cn2c(n1)sc1cc(Cl)cc(Cl)c12
Found: > 100 µM (inactive)

Lookup: Look up GI50 for this compound: Cc1ccc(NC(=O)CCC(CC(=O)C(C)(C)C)=NNC(=O)C(=O)NN)cc1C
Found: > 100 µM (inactive)

Lookup: Look up GI50 for this compound: CC1COS(=O)O1 (stereo unspecified)
Found: > 100 µM (inactive)

Lookup: Look up GI50 for this compound: COc1cc(OC)c(OC)cc1/C=N/N=C(\N)NO
Found: > 100 µM (inactive)

Lookup: Look up GI50 for this compound: COc1ccc2c(c1)OC[C@@H]1c3cc(O)c(OCc4ccccc4)cc3O[C@H]21
Found: 13.1 µM (inactive)

Lookup: Look up GI50 for this compound: CCCCCCC1NN(C(C)=O)C(CCCCCC)NN1C(C)=O (stereo unspecified)
Found: > 100 µM (inactive)

Lookup: Look up GI50 for this compound: CO/C(=N\N=Cc1ccccc1)c1ccncc1
Found: > 100 µM (inactive)

Lookup: Look up GI50 for this compound: COC(=O)C(C)(C)[C@@H]1OC(=O)N(S(=O)(=O)c2c(C)cc(C)cc2C)[C@H]1C(C)C
Found: 41.8 µM (inactive)

Lookup: Look up GI50 for this compound: C/C(=N/OC(=O)c1cccc2c(=O)c3ccccc3[nH]c12)[C@H]1CC[C@H]2[C@@H]3CCC4=C/C(=N/OC(=O)c5cccc6c(=O)c7ccccc7[nH]c56)CC[C@]4(C)[C@H]3CC[C@]12C
Found: 13.1 µM (inactive)

Lookup: Look up GI50 for this compound: OC(c1ccc2c(c1)OCO2)c1ccc2c(c1)OCO2
Found: > 100 µM (inactive)

Lookup: Look up GI50 for this compound: Cn1nc(-c2ccccc2)c(C(=O)/C=C/c2ccccc2)c(N2CCCC2)c1=O
Found: 15.3 µM (inactive)

Lookup: Look up GI50 for this compound: CCCNc1ncnc2[nH]ncc12
Found: > 100 µM (inactive)

Lookup: Look up GI50 for this compound: N#CCCN(CCCCN(CCC#N)C(=O)Nc1ccccc1)C(=O)Nc1ccccc1
Found: > 100 µM (inactive)

Lookup: Look up GI50 for this compound: CC/C=C/C[C@H](O)[C@H]1C[C@H]2O[C@H](CC(=O)OC)C[C@H]2O1
Found: > 100 µM (inactive)

Lookup: Look up GI50 for this compound: CNC(C)Cc1ccccc1O (stereo unspecified)
Found: > 100 µM (inactive)

Lookup: Look up GI50 for this compound: CCOC(=O)c1ccc(Nc2nc3ccccc3nc2C(=O)OCC)cc1
Found: > 100 µM (inactive)

Lookup: Look up GI50 for this compound: CC(C)(C)c1ccc(OCC(=O)O)c(Cl)c1
Found: > 100 µM (inactive)

Lookup: Look up GI50 for this compound: C/C(=N\NC(=S)Nc1ccccc1)c1nc2cccnc2[nH]1
Found: 2.69 µM (inactive)

###

Please provide measured GI50 for the entries that follow.
test system: KM12; experiment: NCI tumour cell line growth inhibition, 48 h
The source made the active and inactive calls. Cut-off read from the data, not from the text of the source: active = GI50 up to about 1.1 µM and inactive = higher.

Lookup: Look up GI50 for this compound: Nc1nc(SCc2ccccc2[N+](=O)[O-])c2[nH]cnc2n1
Found: > 57.7 µM (inactive)

Lookup: Look up GI50 for this compound: CC12C3C4C1C1C2C3C41CO (stereo unspecified)
Found: > 100 µM (inactive)

Lookup: Look up GI50 for this compound: COc1ccc(P2(=S)OC(C)(C)C(C)(C)O2)cc1
Found: > 100 µM (inactive)

Lookup: Look up GI50 for this compound: O=C1Nc2c(Cl)cc(Cl)cc2/C1=N/NC(=O)c1ccccc1O
Found: 15.5 µM (inactive)

Lookup: Look up GI50 for this compound: O=C1C2c3[nH]c4ccccc4c3[C@@H]3CCCCC3C2C(=O)N1c1ccccc1 (stereo partly specified)
Found: 19.2 µM (inactive)

Lookup: Look up GI50 for this compound: O=P(O)(O)CC1OC(CO)C(O)C1O (stereo unspecified)
Found: > 100 µM (inactive)

Lookup: Look up GI50 for this compound: COC(=O)c1cc2c3c(ccc2[nH]1)N(C(=O)c1cc2c4c(ccc2[nH]1)N(C(=O)c1cc2c5c(ccc2[nH]1)N(C(N)=O)CC5)CC4)CC3
Found: 6.82 µM (inactive)

Lookup: Look up GI50 for this compound: Cc1cc2ccccc2c[n+]1CC(O)C[n+]1cc2ccccc2cc1C
Found: > 100 µM (inactive)

Lookup: Look up GI50 for this compound: CCNC1CC(C(C)(C)NCC)CC=C1C (stereo unspecified)
Found: > 100 µM (inactive)

Lookup: Look up GI50 for this compound: CCc1nc2c(n1CC)C(=O)c1ccccc1C2=O
Found: 45.3 µM (inactive)

Lookup: Look up GI50 for this compound: c1ccc2c(c1)nnn2CNc1ccc(N2CCCCC2)cc1
Found: > 100 µM (inactive)

Lookup: Look up GI50 for this compound: CCCNc1ncnc2[nH]ncc12
Found: > 100 µM (inactive)

Lookup: Look up GI50 for this compound: CC(C)(C)[C@H]1NC(=O)CN1C(=O)OCc1ccccc1
Found: > 100 µM (inactive)

Lookup: Look up GI50 for this compound: Nc1ccc2cc(S(=O)(=O)O)cc(O)c2c1/N=N/c1ccc(NC(=O)Nc2ccc(/N=N/c3c(N)ccc4cc(S(=O)(=O)O)cc(O)c34)c(S(=O)(=O)O)c2)cc1S(=O)(=O)O
Found: > 100 µM (inactive)

Lookup: Look up GI50 for this compound: CCOc1cc(C2SCC(=O)N2c2ccc3c(c2)Oc2c(Cl)c4c(c(Cl)c2=N3)Oc2cc(N3C(=O)CSC3c3ccc(O)c(OCC)c3)ccc2N=4)ccc1O (stereo unspecified)
Found: 40.9 µM (inactive)

Lookup: Look up GI50 for this compound: CCNC(=S)N/N=C/c1ccccn1
Found: 8.67 µM (inactive)

Lookup: Look up GI50 for this compound: COC(=O)C(C(=O)C(=O)Nc1ccc(C)cc1C)c1nc2ccc([N+](=O)[O-])cc2nc1O (stereo unspecified)
Found: > 100 µM (inactive)

Lookup: Look up GI50 for this compound: COc1cc(OC)c(OC)cc1/C=N/N=C(\N)NO
Found: 18.5 µM (inactive)

Lookup: Look up GI50 for this compound: Nn1c(S)nnc1COc1cccc(OCc2nnc(S)n2N)c1
Found: > 100 µM (inactive)

Lookup: Look up GI50 for this compound: CC1C(c2cc(C(C)(C)C)c(O)c(C(C)(C)C)c2)c2cc3c(cc2OC1N1CCOCC1)OCO3 (stereo unspecified)
Found: 43.9 µM (inactive)

Lookup: Look up GI50 for this compound: OCCNCCN1CCN(CCCN2c3ccccc3Sc3ccc(C(F)(F)F)cc32)CC1
Found: 27.2 µM (inactive)
